Assay: Solubility of amorphous compound of formula (I) in selected solvents (slurry stirred 4 hours, mother liquor by HPLC)
Type: physicochemical
Conditions: organic solvent or mixture, thermodynamic from solid; 1-propanol, 20° C.
MEASURED ATTRIBUTE: solubility at 4 h (mg/mL)

>>> print(df.to_string())
                           molecular_string  value_unit  numeric_value
0  C[n+]1ccn(C[C@@]2(C)[C@H](C(=O)[O-])N3C(=O)C[C@H]3S2(=O)=O)n1       mg/mL            295

###

Test: Solubility of amorphous compound of formula (I) in selected solvents (slurry stirred 4 hours, mother liquor by HPLC)
Format: physicochemical
Conditions: organic solvent or mixture, thermodynamic from solid; Methanol, 20° C.
Procedure: Solubility values of solvents were calculated with respect to the HPLC response factor, set out in FIG. 12. HPLC response factor was calculated for the amorphous compound of formula (I) using samples dissolved in acetonitrile/water 9/1 with the following method: • Column: ZORBAX Eclipse XDB-C18 (150×4.6 mm, 5 μm) • Temperature: 25° C. • Mobile phase: A: 0.05M Sodium ortophosphate/water, B: Acetonitrile • Gradient: from 5% of B to 95% of B in 10 min • Detector: UV λ=220 nm […]
MEASURED ATTRIBUTE: solubility at 4 h

>>> print(df.to_string())
                           molecular_string       result
0  C[n+]1ccn(C[C@@]2(C)[C@H](C(=O)[O-])N3C(=O)C[C@H]3S2(=O)=O)n1  > 400 mg/mL

###

Experiment: Solubility of amorphous compound of formula (I) in selected solvents (slurry stirred 4 hours, mother liquor by HPLC)
Type: physicochemical
Details: thermodynamic from solid; Water, 20° C.
MEASURED ATTRIBUTE: solubility at 4 h

>>> df
                                   compound       result
0  C[n+]1ccn(C[C@@]2(C)[C@H](C(=O)[O-])N3C(=O)C[C@H]3S2(=O)=O)n1 [amorphous compound of formula (I)]  > 400 mg/mL

###

Test: Solubility of amorphous compound of formula (I) in selected solvents (slurry stirred 4 hours, mother liquor by HPLC)
Assay type: physicochemical
Settings: organic solvent or mixture, thermodynamic from solid; 1-propanol, 40° C.
MEASURED ATTRIBUTE: solubility at 4 h

>>> print(df.to_string())
                           molecular_string       result
0  C[n+]1ccn(C[C@@]2(C)[C@H](C(=O)[O-])N3C(=O)C[C@H]3S2(=O)=O)n1  > 400 mg/mL

###

Experiment: Solubility assessment of Form C in saline physiological solution (HPLC)
Format: physicochemical
Details: physiologic solution (0.9% NaCl), saline or isotonic, thermodynamic from solid; physiologic solution (0.9% of NaCl), ~20 ° C., timepoint 30 mins; read-out: Solubility (mg/ml) at ambient temperature
MEASURED ATTRIBUTE: solubility at 30 min (mg/mL)

                                   molecule  numeric_value
0  C[n+]1ccn(C[C@@]2(C)[C@H](C(=O)[O-])N3C(=O)C[C@H]3S2(=O)=O)n1 [Form C]            772

###

Assay: Solubility assessment of Form C in saline physiological solution (HPLC)
Type: physicochemical
Details: physiologic solution (0.9% NaCl), saline or isotonic, thermodynamic from solid; physiologic solution (0.9% of NaCl), ~20 ° C., timepoint 2 hours, solid completely dissolved; read-out: Solubility (mg/ml) at ambient temperature
Experimental: The Form C solubility was calculated by HPLC employing a dedicated walk-up method. The product obtained by the scaled up procedure described in Example 13 was used to perform the experiments. 1.9 g of the product was suspended in 1 ml of commercial physiologic solution (0.9% of NaCl) at ambient temperature (˜20 ° C.). The suspension resulted slightly opaque and quite viscous after 30 min. After this time the suspension was sampled and the sample injected in HPLC to determine its concentration. […]
MEASURED ATTRIBUTE: solubility at 2 h

>>> print(df.to_string())
                                   compound       result
0  C[n+]1ccn(C[C@@]2(C)[C@H](C(=O)[O-])N3C(=O)C[C@H]3S2(=O)=O)n1 [Form C]  > 883 mg/mL
